A collection of compounds and their measured logP at 5000 µM
- method notes: Partition coefficient, log P at 5 mM by reverse phase HPLC analysis
- Assay type: physicochemical
- measurement context: octanol/water
experimental endpoint: logP at 5000 µM

>>> df
                                 mol_smiles  readout_number
0  O=C(COc1ccc(Oc2ccc(C(F)(F)F)cc2)cc1)Cn1ccc2cc(C(=O)O)ccc21               4
1  CC(C)c1ccc(-c2ccc(OCC(=O)Cn3ccc4cc(C(=O)O)ccc43)cc2)cc1             4.7
2  NC(=O)c1ccc2c(ccn2CC(=O)COc2cccc(-c3ccccc3)c2)c1             2.3
3  O=C(COc1ccc(-c2ccccc2)cc1)Cn1ccc2cc(C(=O)O)ccc21             3.2
4  Cc1ccc(-c2ccc(OCC(=O)Cn3ccc4cc(C(=O)O)ccc43)cc2)cc1             3.7
5  CCCCCCCCc1ccc(OCC(=O)Cn2ccc3cc(C(=O)O)ccc32)cc1             6.3
6  NC(=O)c1ccc2c(ccn2CC(=O)COc2ccccc2-c2ccccc2)c1             2.3
7  O=C(COc1ccc(Cc2ccccc2)cc1)Cn1ccc2cc(C(=O)O)ccc21             3.3
8  CCCCCCCCOc1ccc(OCC(=O)Cn2ccc3cc(C(=O)O)ccc32)cc1             5.9
9  O=C(COc1ccc(Oc2ccccc2)cc1)Cn1ccc2cc(C(=O)O)ccc21             3.1

---

A collection of compounds and their measured logP at 5000 µM
- method notes: Partition coefficient, log P at 5 mM by reverse phase HPLC analysis
- Type: physicochemical
- measurement context: octanol/water
experimental endpoint: logP at 5000 µM

>>> df
                                 mol_smiles  experimental_endpoint  readout_number
0  NC(=O)c1ccc2c(ccn2CC(=O)COc2ccc(-c3ccccc3)cc2)c1        logP at 5000 µM             2.4
1  O=C(COc1ccccc1-c1ccccc1)Cn1ccc2cc(C(=O)O)ccc21        logP at 5000 µM             3.1
2  CC(=O)c1cn(CC(=O)COc2ccc(OCCOc3ccccc3)cc2)c2ccc(C(=O)O)cc12        logP at 5000 µM             2.6

---

- method notes: Thermodynamic solubility in sodium phosphate buffer of pH 7.4 by UV-reverse phase HPLC analysis
- Assay type: physicochemical
experimental endpoint: solubility thermodynamic

>>> df
                                 mol_smiles     result
0  O=C(COc1ccc(-c2ccccc2)cc1F)Cn1ccc2cc(C(=O)O)ccc21    5 µg/mL
1  CCCCCCCOc1ccc(OCC(=O)Cn2ccc3cc(C(=O)O)ccc32)cc1  < 3 µg/mL
2  COc1ccc(-c2ccc(OCC(=O)Cn3ccc4cc(C(=O)O)ccc43)cc2)cc1  < 3 µg/mL
3  O=C(COc1ccc(-c2cccc(Cl)c2)cc1)Cn1ccc2cc(C(=O)O)ccc21  < 3 µg/mL
4  NC(=O)c1ccc2c(ccn2CC(=O)COc2ccccc2-c2ccccc2)c1  < 3 µg/mL
5  O=C(COc1ccc(-c2ccccc2)cc1Cl)Cn1ccc2cc(C(=O)O)ccc21  < 3 µg/mL
6  NC(=O)c1ccc2c(ccn2CC(=O)COc2ccc(-c3ccccc3)cc2)c1  < 3 µg/mL
7  CCCCCCCCc1ccc(OCC(=O)Cn2ccc3cc(C(N)=O)ccc32)cc1  < 3 µg/mL
8  CC(=O)c1cn(CC(=O)COc2ccc(Oc3ccccc3)cc2)c2ccc(C(=O)O)cc12  111 µg/mL
9  NC(=O)c1ccc2c(ccn2CC(=O)COc2cccc(-c3ccccc3)c2)c1  < 3 µg/mL
